Overview of recorded inhibition at 1 µM for various molecules
molecular target: hERG channels (Homo sapiens (Human)); assay: hERG Manual Patch Clamp Assay; assay type: cell-based; settings: human, HEK 293 cells stably expressing hERG channels, pH 7.4, 1 uM, read-out: hERG EP % Inh @ 1 uM
assay_metric: inhibition at 1 µM (%)

1. Cc1ncn(-c2ncc(CN3CCN[C@H](c4ccc5c(c4C)COC5=O)C3)cn2)c1C(F)F [Example 150-I] ... 14
2. COc1cc(-n2ncc(CN3CCN[C@H](c4ccc5c(c4C)COC5=O)C3)n2)nc(C)c1C#N [Example 188-I] ... 18
3. Cc1cc(C#N)ccc1-n1cc(CN2CCO[C@H](c3ccc4c(c3C)COC4=O)C2)cn1 [Example 47-I] ... 49
4. COc1nc(-n2cc(CN3C[C@@H](c4ccc5c(c4C)COC5=O)N[C@@H](C)C3)cn2)ncc1C#N [Example 99-I] ... 9.6
5. Cc1cn(-c2cc(C)c(CN3CCN[C@H](c4ccc5c(c4C)COC5=O)C3)cn2)cn1 [Example 141-I] ... 7.1
6. Cc1cc(-n2cc(CN3C[C@H](CO)N(C)[C@H](c4ccc5c(c4C)COC5=O)C3)cn2)ncc1C#N [Example 195-I] ... 5.9
7. Cc1c([C@@H]2CN(Cc3cnn(-c4ccc5oc(=O)n(C)c5c4)n3)C[C@H](CO)N2)ccc2c1COC2=O [Example 109-I] ... 3.6
8. Cc1cc(-n2cc(CN3CC(O)C(c4ccc5c(c4C)COC5=O)C3)cn2)ncc1C#N (single isomer, unassigned) [Example 211-I] ... 58
9. COC1CC(c2ccc3c(c2C)COC3=O)CN(Cc2cnn(-c3cc(C)c(C#N)cn3)c2)C1 (single isomer, unassigned) [Example 200-II] ... 27
10. Cc1cc(-c2cc(CN3CC[C@@H](O)[C@H](c4ccc5c(c4C)COC5=O)C3)on2)ncc1C#N [Example 193-I] ... 14
11. Cc1cc(N2CC(CN3CCN[C@H](c4ccc5c(c4C)COC5=O)C3)CC2=O)ncc1C#N (single isomer, unassigned) [Example 158-I] ... 20
12. COc1nn(-c2ncc(CN3CCN[C@H](c4ccc5c(c4C)COC5=O)C3)cn2)cc1C#N [Example 227-I] ... 18
13. COc1cc(-n2cc(CN3C[C@@H](c4ccc5c(c4C)COC5=O)N[C@@H](C)C3)cn2)ncn1 [Example 207-I] ... 10
14. Cc1cc(-c2nnc(CN3C[C@@H](c4ccc5c(c4C)COC5=O)N[C@@H](C)C3)o2)ncc1C#N [Example 191-I] ... 4.3
15. Cc1cc(-n2cc(CN3C[C@@H](c4ccc5c(c4C)COC5=O)N[C@@H](C)C3)cn2)ccn1 [Example 102-I] ... 5.6
16. Cc1c([C@@H]2CN(Cc3cnn(-c4cc(N5CCOC5=O)ccn4)c3)CCN2)ccc2c1COC2=O [Example 185-I] ... 9.6
17. Cc1nc(-n2cc(CN3C[C@@H](c4ccc5c(c4C)COC5=O)N[C@@H](C)C3)cn2)ncc1C#N [Example 96-I] ... 9.6
18. CCc1nn(-c2ccc(CN3CCN[C@H](c4ccc5c(c4C)COC5=O)C3)cn2)cc1C#N [Example 226-I] ... 33
19. COc1cc(-n2cc(CCN3C[C@@H](c4ccc5c(c4C)COC5=O)N[C@@H](C)C3)cn2)ncc1C#N [Example 192-I] ... 46
20. Cc1nccc(-n2cc(CN3C[C@@H](c4ccc5c(c4C)COC5=O)N[C@@H](C)C3)n(C)c2=O)n1 [Example 173-I] ... 4
21. Cc1c([C@@H]2CN(Cc3cnn(-c4ccn(C(F)F)c(=O)c4)c3)C[C@H](C)N2)ccc2c1COC2=O [Example 129-I] ... 32
22. Cc1c([C@@H]2CN(Cc3cnc(-n4cnc(C#N)c4)s3)CCN2)ccc2c1COC2=O [Example 21-I] ... 8.5
23. Cc1cc(-c2nnc(CN3CC(c4ccc5c(c4C)COC5=O)NC(C)(C)C3)o2)ncc1C#N (single isomer, unassigned) [Example 267-I] ... 9.9
24. Cc1c([C@@H]2CN(Cc3cnn(-c4cc(C)c5oc(=O)n(C)c5c4)c3)CCN2)ccc2c1COC2=O [Example 57-I] ... 26
25. COc1cc(-n2nnc(CN3CC[C@@H](O)[C@H](c4ccc5c(c4C)COC5=O)C3)n2)ccc1C#N [Example 272-I] ... 5.2
26. COc1cc(N2CC(CN3C[C@@H](c4ccc5c(c4C)COC5=O)N[C@@H](C)C3)N(C)C2=O)ncc1C#N (stereo partly drawn) [Example 274-I] ... 43
27. Cc1cc(-n2cnc(CN3C[C@@H](c4ccc5c(c4C)COC5=O)N[C@@H](C)C3)n2)ncc1C#N [Example 122-I] ... 6.6
28. Cc1c([C@@H]2CN(Cc3cnc(-n4cc(C#N)c(C5CC5)n4)nc3)CCN2)ccc2c1COC2=O [Example 218-I] ... 39
29. Cc1cc(-n2ncc(CN3CCN[C@H](c4ccc5c(c4C)COC5=O)C3)c2C)ncc1C#N [Example 146-I] ... 16
30. Cc1cc(-c2cc(CN3C[C@@H](c4ccc5c(c4C)COC5=O)N[C@@H](C)C3)on2)ncc1C#N [Example 214-I] ... 22

---

target: hERG channels (Homo sapiens (Human), UniProt Q12809); experiment: hERG Manual Patch Clamp Assay; format: cell-based; settings: human, HEK 293 cells stably expressing hERG channels, pH 7.4, 1 uM, read-out: hERG EP % Inh @ 1 uM
Sequence (Q12809 whole entry): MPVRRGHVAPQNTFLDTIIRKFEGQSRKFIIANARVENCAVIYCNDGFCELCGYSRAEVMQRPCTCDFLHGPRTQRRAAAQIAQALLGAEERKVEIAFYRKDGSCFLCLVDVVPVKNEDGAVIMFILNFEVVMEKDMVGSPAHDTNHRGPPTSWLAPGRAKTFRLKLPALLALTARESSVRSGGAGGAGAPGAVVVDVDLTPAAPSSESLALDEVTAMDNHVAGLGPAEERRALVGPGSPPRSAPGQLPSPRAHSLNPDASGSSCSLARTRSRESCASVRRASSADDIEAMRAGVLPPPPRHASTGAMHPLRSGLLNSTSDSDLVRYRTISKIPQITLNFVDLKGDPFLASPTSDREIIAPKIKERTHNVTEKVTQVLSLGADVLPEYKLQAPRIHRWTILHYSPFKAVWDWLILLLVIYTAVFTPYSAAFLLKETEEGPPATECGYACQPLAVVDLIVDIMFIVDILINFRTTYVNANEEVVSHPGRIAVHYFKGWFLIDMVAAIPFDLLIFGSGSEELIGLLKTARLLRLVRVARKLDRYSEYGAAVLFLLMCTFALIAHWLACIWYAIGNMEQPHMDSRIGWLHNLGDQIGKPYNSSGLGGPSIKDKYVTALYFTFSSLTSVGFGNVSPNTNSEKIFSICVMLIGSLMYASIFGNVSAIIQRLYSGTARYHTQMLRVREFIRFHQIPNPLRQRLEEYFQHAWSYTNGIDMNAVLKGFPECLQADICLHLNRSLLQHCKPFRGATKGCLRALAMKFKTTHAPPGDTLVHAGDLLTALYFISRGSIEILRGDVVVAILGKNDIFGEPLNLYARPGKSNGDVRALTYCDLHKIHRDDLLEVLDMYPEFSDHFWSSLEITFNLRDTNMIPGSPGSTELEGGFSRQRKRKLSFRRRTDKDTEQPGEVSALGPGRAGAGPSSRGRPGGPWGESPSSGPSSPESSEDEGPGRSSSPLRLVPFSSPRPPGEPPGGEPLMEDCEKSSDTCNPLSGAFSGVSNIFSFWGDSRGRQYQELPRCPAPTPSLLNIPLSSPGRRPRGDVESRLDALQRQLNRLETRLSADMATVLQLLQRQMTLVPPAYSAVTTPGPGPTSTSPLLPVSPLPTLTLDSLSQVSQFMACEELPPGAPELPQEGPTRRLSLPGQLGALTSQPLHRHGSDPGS
Reported inhibition at 1 µM values are given for each entry in this list.
assay_metric: inhibition at 1 µM (%)

1) COc1cc(-n2cnc(C)c2)ncc1CN1CCN[C@H](c2ccc3c(c2C)COC3=O)C1 ... 7.6
2) COc1cc(-c2ccc(CN3CCN[C@H](c4ccc5c(c4C)COC5=O)C3)cn2)ncc1C#N ... 23
3) Cc1c([C@@H]2CN(Cc3ccc(-c4ccc(S(C)(=O)=O)nc4)nc3)C[C@H](C)N2)ccc2c1COC2=O ... 5.4
4) Cc1nc(-n2ncc(CN3C[C@@H](c4ccc5c(c4C)COC5=O)N[C@@H](C)C3)n2)nc(C)c1C#N ... 5.1

---

molecular target: hROMK (human Kir1.1) (Homo sapiens (Human), UniProt P48048); test: cell-based; conditions: CHO T-Rex hROMK stable cell line; thallium flux; 10-point concentration response curve; read-out: Human ROMK Th Flux IC50
Sequence (P48048 whole entry): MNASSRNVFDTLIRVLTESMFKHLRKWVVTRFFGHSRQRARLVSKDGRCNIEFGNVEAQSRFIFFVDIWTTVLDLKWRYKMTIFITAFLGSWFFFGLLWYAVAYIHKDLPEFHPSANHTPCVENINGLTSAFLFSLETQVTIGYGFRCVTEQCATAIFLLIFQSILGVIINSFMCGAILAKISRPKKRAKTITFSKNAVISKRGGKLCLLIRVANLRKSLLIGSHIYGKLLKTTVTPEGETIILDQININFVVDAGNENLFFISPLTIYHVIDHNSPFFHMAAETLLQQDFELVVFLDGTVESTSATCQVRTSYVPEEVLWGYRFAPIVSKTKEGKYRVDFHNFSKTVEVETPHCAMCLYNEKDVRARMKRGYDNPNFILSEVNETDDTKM
assay_metric: IC50

1) Cc1cc(-n2cc(CN3CCN[C@H](c4ccc5c(c4C)COC5=O)C3)c(C(F)F)n2)ncc1C#N [Example 233-I] ... 22 nM
2) Cc1cn(-c2ccc(CN3CCO[C@H](c4ccc5c(c4C)COC5=O)C3)cn2)cn1 [Example 16-I] ... 33 nM
3) COc1cc(-c2ccc(CN3C[C@@H](c4ccc5c(c4C)COC5=O)OC3=O)cn2)ncc1C#N [Example 17-I] ... 900 nM
4) Cc1nn(-c2ncc(CN3C[C@@H](c4ccc5c(c4C)COC5=O)N[C@@H](C)C3)cn2)cc1C#N [Example 108-I] ... 30 nM
5) COc1nn(-c2ccc(CN3CCN[C@H](c4ccc5c(c4C)COC5=O)C3)cn2)cc1C#N [Example 223-I] ... 18 nM
6) Cc1c([C@@H]2CN(Cc3cnn(-c4ccc(S(C)(=O)=O)cc4)c3)CCO2)ccc2c1COC2=O [Example 45-I] ... 370 nM
7) Cc1cc(-n2ccc(CN3CCO[C@H](c4ccc5c(c4C)COC5=O)C3)n2)ncc1C#N [Example 53-I] ... 370 nM

---

target: hROMK (human Kir1.1) (Homo sapiens (Human), UniProt P48048); assay: cell-based; conditions: CHO T-Rex hROMK stable cell line; thallium flux; 10-point concentration response curve; read-out: Human ROMK Th Flux IC50
IC50 vs 0.04 µM: less than gives Criterion met; not less than gives Criterion not met.

1) COc1cc(-n2cnc(CN3C[C@@H](c4ccc5c(c4C)COC5=O)N[C@@H](C)C3)c2)ccn1 ... Criterion met
2) Cc1c([C@@H]2CN(Cc3cnn(-c4cccc(N5CCOC5=O)n4)c3)C[C@H](C)N2)ccc2c1COC2=O ... Criterion not met
3) Cc1ccc(-n2cnc(CN3C[C@@H](c4ccc5c(c4C)COC5=O)N[C@@H](C)C3)c2)cn1 ... Criterion not met
4) COc1cc(-n2cc(CN3CC(c4ccc5c(c4C)COC5=O)NC(C(C)O)C3)cn2)ncc1C#N (single isomer, unassigned) ... Criterion not met
5) Cc1cc(-n2cc(CN3CCN[C@H](c4ccc5c(c4C)COC5=O)C3)nn2)nc(C)c1C#N ... Criterion met
6) Cc1cc(-n2cc(CN3CCO[C@H](c4ccc5c(c4C)COC5=O)C3)cn2)ncc1C#N ... Criterion met
7) Cc1c([C@@H]2CN(Cc3nnc(-c4ccc(C#N)cn4)o3)CCO2)ccc2c1COC2=O ... Criterion not met
8) Cc1cc(-n2cnc(CN3C[C@@H](c4ccc5c(c4C)COC5=O)N[C@@H](C)C3)c2)cc(C)n1 ... Criterion not met
9) Cc1c([C@@H]2CN(C(=O)c3cnc(-c4ccc5oc(=O)n(C)c5c4)s3)CCO2)ccc2c1COC2=O ... Criterion not met
10) Cc1cc(-c2nc(CN3C[C@@H](c4ccc5c(c4C)COC5=O)N[C@@H](C)C3)no2)ncc1C#N ... Criterion not met
11) Cc1cc(N2CCC(CN3CCN[C@H](c4ccc5c(c4C)COC5=O)C3)C2)ncc1C#N (single isomer, unassigned) ... Criterion met
12) Cc1ccc(-n2cnc(CN3C[C@@H](c4ccc5c(c4C)COC5=O)N[C@@H](C)C3)c2)cc1 ... Criterion not met
13) Cc1cc(-n2cc(CN3CC(O)C(c4ccc5c(c4C)COC5=O)C3)cn2)ncc1C#N (single isomer, unassigned) ... Criterion met
